Recorded values, source ChEMBL document CHEMBL1201862.

// values below are AC50; system is Cytochrome P450 2D6 (Homo sapiens);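 further: CYP2D6 member of a cytochrome P450 panel assay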
Sequence (P10635 whole entry): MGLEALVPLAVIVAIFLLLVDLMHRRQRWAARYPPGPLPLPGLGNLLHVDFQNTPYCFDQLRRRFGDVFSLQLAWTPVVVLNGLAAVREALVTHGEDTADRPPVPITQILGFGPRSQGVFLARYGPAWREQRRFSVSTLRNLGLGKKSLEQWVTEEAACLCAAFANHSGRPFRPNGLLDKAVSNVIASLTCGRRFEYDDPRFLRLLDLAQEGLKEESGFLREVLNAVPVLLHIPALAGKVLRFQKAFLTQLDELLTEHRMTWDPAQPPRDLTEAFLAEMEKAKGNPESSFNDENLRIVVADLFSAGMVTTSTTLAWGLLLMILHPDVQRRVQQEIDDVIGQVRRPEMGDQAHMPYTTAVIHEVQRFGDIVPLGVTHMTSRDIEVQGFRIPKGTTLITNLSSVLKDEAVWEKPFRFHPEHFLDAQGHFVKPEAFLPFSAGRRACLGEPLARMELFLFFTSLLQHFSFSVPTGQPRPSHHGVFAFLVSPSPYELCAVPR
measurement-name: AC50

>>> result("C[C@H](Br)CN(C[C@H](C)Br)c1ccc2c(c1)Cc1ccccc1-2")
"inconclusive"
>>> result("c1ccc2c(c1)nnn2CN1CCOCC1")
"inconclusive"
>>> result("O=C([O-])Cc1ccccc1Nc1c(Cl)cccc1Cl.[Na+] [DICLOFENAC SODIUM]")
"inactive"
>>> result("COCCNC(=O)COC(=O)/C=C/c1cnc2ccccc2n1")
"inconclusive"
>>> result("CC(C)CCC[C@@H](C)[C@@H]1CC[C@@H]2[C@H]3CC[C@H]4C[C@@H](N)CC[C@@]4(C)[C@@H]3CC[C@]21C")
"inconclusive"
>>> result("CCC(CC)c1nnc(NC(=O)c2ccc3ccccc3n2)s1")
"inactive"

* * *

Target: Sentrin-specific protease 8 (Homo sapiens, UniProt Q96LD8);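 further: luminescence read-out of SENP8 inhibition, dose-response confirmation following an ultra-high-throughput screen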
Sequence (Q96LD8 whole entry): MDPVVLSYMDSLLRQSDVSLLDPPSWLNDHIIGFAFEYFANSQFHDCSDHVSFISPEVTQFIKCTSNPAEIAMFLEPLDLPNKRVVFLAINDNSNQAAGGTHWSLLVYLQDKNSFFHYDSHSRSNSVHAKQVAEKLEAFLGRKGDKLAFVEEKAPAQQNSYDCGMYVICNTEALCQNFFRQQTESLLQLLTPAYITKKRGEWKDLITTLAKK
Assay type: functional
The source made the active and inactive calls.
Outcome codes: active, inactive

>>> classification("CCOc1cccc(/C=C/c2ccc3cccc(O)c3n2)c1O")
"inactive"
>>> classification("Clc1ccc(-c2nnc(-c3ccccc3Cl)o2)cc1")
"active"
>>> classification("O=C(/C=C/c1ccco1)Nc1ccc(N2CCCC2)cc1")
"inactive"
>>> classification("Cc1ccc(SCC(=O)Nc2cc([N+](=O)[O-])ccc2O)cc1")
"active"
>>> classification("Brc1ccc(/C=N/Nc2ccccn2)cc1")
"inactive"

* * *

Molecular target: Sentrin-specific protease 6 (Homo sapiens, UniProt Q9GZR1)
Sequence (Q9GZR1 whole entry): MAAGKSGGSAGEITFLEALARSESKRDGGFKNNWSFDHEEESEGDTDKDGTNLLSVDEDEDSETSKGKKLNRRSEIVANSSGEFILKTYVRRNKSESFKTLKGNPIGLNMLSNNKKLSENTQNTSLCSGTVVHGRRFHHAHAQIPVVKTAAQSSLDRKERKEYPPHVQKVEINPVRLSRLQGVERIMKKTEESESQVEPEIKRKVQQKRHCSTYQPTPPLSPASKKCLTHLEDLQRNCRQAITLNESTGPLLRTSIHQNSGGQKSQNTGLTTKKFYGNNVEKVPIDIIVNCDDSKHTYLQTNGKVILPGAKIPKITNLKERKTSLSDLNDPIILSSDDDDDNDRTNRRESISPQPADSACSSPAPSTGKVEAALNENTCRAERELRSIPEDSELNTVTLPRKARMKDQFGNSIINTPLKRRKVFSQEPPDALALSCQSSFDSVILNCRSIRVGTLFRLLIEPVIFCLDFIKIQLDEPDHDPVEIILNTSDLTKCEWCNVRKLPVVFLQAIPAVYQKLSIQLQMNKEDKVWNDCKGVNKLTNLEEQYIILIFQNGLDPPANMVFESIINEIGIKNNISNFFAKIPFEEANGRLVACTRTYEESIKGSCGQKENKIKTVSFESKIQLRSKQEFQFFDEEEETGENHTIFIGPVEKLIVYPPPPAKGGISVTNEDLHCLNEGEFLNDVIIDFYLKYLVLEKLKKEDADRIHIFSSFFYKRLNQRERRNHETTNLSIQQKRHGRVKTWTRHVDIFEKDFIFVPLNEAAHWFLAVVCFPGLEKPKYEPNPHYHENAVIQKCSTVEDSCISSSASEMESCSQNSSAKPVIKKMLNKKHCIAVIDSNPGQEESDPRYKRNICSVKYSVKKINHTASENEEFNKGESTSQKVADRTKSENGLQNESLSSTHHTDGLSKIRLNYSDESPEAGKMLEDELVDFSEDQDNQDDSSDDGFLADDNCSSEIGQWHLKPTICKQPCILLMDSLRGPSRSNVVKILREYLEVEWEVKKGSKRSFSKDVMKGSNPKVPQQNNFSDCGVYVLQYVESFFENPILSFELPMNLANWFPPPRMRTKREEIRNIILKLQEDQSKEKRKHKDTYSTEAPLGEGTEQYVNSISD
Type: functional
The source made the active and inactive calls.
Outcomes: active, inactive

>>> classification("Cc1ccc(SCC(=O)Nc2cc([N+](=O)[O-])ccc2O)cc1")
"active"
>>> classification("Brc1ccc(/C=N/Nc2ccccn2)cc1")
"active"
>>> classification("CCOc1cccc(/C=C/c2ccc3cccc(O)c3n2)c1O")
"active"
>>> classification("O=C(/C=C/c1ccco1)Nc1ccc(N2CCCC2)cc1")
"inactive"
>>> classification("Clc1ccc(-c2nnc(-c3ccccc3Cl)o2)cc1")
"active"

* * *

Assay: NIH-3T3 fibroblast cytotoxicity, dose response, cytotoxicity control, cell-based, fluorescence, Alamar Blue, secondary assay (AID 2327);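 further: NIH-3T3 mouse fibroblasts cultured with fluconazole at 8 µg/mL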
Type: functional
The source made the active and inactive calls.
EC50 listing for selected molecules.
measurement-name: EC50

>>> result("O=C(Nc1cccc(NC(=O)c2ccccc2Cl)c1)c1ccc([N+](=O)[O-])o1")
"12.1 µM (inconclusive)"
>>> result("Cc1cc2oc3ccc(NCCCn4ccnc4)cc3c(=O)c2cc1C")
"24.7 µM (active)"
>>> result("CCOc1ccc(NC(=O)CCC(=O)N/N=C/c2ccc3c(c2)OCO3)cc1")
"> 150 µM (inactive)"
>>> result("Cn1c(O)c(/C=N/NC(=O)c2cc3ccccc3cc2O)c2ccccc21")
"> 160 µM (inconclusive)"
>>> result("Clc1ccccc1C(c1ccccc1)(c1ccccc1)n1ccnc1")
"11.6 µM (active)"
>>> result("COc1ccc(C2c3ccc4ccccc4c3Oc3ncn(CCN4CCOCC4)c(=N)c32)cc1 (stereo unspecified)")
"> 160 µM (inactive)"

* * *

Biological target: Small ubiquitin-related modifier 1 (Homo sapiens, UniProt P63165)
Sequence (P63165 whole entry): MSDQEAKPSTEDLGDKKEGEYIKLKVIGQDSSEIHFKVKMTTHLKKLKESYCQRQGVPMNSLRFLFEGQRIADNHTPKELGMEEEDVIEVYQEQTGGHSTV
Assay: SUMO1 protein-protein binding blockers, potency – biochemical, FRET, dose response (AID 624383)
Format: functional
Conditions: read-out: IC50_Mean
Active and inactive are the calls of the source.
measurement-name: IC50

>>> result("CC(OC(=O)c1ccc(NC(=O)CC#N)cc1)C(=O)Nc1ccc(Oc2ccccc2)cc1 (centres undefined)")
"17.1 µM (active)"
>>> result("CC(=O)c1cccc(NC(=O)c2cccc(N3C(=O)c4ccccc4C3=O)c2)c1")
"8.03 µM (active)"
>>> result("O=C(CCS(=O)(=O)c1ccc(Br)cc1)N1CCCCCC1")
"13 µM (active)"
>>> result("C=CCCC(=O)Nc1nc(C)c(-c2csc(Nc3cccc(OC)c3)n2)s1")
"17.7 µM (active)"
